Catalogue of molecules with associated TGI
# Tested on: MDA-MB-231 breast
# protocol-summary: NCI tumour cell line growth inhibition, 48 h
The reply should be a number in µM, with the unit left off.

- CC(=O)c1c(O)c(C)c(O)c(Cc2c(O)c3c(c(C(=O)/C=C/c4ccccc4)c2O)OC(C)(C)C=C3)c1O: 6.86
- CC1CC(C)CC(C)C(O)/C(C#N)=C/C=C/CC(C2CCCC2C(=O)O)OC(=O)CC(O)C(C)C1 (centres undefined): 0.0706

Prompt: Supply recorded TGI for Clc1ccc(-c2cn3ccnc3c(-c3ccc(Cl)cc3)n2)cc1 here.
Response: 47

Prompt: Supply recorded TGI for CN1CCC(CNc2cc(C3(C(=O)Nc4cc(C(=O)Nc5ccc(Cl)c(C(F)(F)F)c5)ccc4F)CC3)ncn2)CC1 here.
Response: 2.99

###

# Tested on: OVCAR-5 ovarian
# protocol-summary: NCI tumour cell line growth inhibition, 48 h; in the data active means GI50 below about 0.43 µM; inactive means the rest
Field 'call' accepts active, inactive

Prompt: Per the records of this test, what outcome belongs to Cc1cc([NH-])c([NH-])cc1C.[Cl][Pt+2][Cl] ?
Response: inactive

Prompt: Per the records of this test, what outcome belongs to O=C(Nc1cccc(Cl)c1)Nn1cnnc1 ?
Response: inactive

Prompt: Per the records of this test, what outcome belongs to COc1ccc(-c2noc(C(=O)O)c2-c2cc(OC)c(OC)c(OC)c2)cc1 ?
Response: inactive

Prompt: Per the records of this test, what outcome belongs to COc1ccc(C2=Nn3c(nnc3-c3cc(Cl)cc(Cl)c3Cl)SC2)cc1 ?
Response: inactive

Prompt: Per the records of this test, what outcome belongs to CCSC1=NC2C(N(CC)C(=O)N2CC)N1/N=C/C=C/c1ccccc1[N+](=O)[O-] (stereo unspecified) ?
Response: active

Prompt: Per the records of this test, what outcome belongs to O=C(O)c1nc(NCc2nc3cc(Cl)ccc3o2)n[nH]1 ?
Response: inactive

Prompt: Per the records of this test, what outcome belongs to C=C1CCC2C3(C)COC(C)(C)OC3CCC2(C)C1C/C=C1/C(=O)OCC1OC(C)=O (stereo unspecified) ?
Response: inactive

###

# Tested on: HCT-116 colon
# protocol-summary: NCI tumour cell line growth inhibition, 48 h
measure-name: TGI

Illustrative cases are given below, each with its answer.
• O=C(Nc1ccc(N2C(=O)CSC2c2ccccc2O)cc1)c1ccc(N2C(=O)CSC2c2ccccc2O)cc1 (configuration not stated) = > 100 µM
• CC(CO)Nc1cc(-c2[nH]c3cccnc3c2-c2ccc(F)cc2)ccn1 (configuration not stated) = > 25 µM
• N#CN1C2CCC1CC(=O)C2 = > 100 µM
• C#CCNC(CSSCC(N)C(=O)O)C(=O)O (configuration not stated) = > 100 µM
• O=C(O)CC(Cc1ccccc1Cl)C(=O)O (configuration not stated) = > 100 µM
• Cn1ccnc1CCc1c(Cl)cccc1Cl = > 100 µM

As a next step, examine the molecule that follows.
Prompt: Supply recorded TGI for C=CCc1c(Cl)nc(Cl)nc1Cl here.
Response: 1.18 µM

###

# System: NCI-H23 lung
# protocol-summary: NCI tumour cell line growth inhibition, 48 h
measure-name: TGI

Illustrative cases are given below, each with its answer.
* CC(=O)NC1C(OCc2ccccc2)OC(CO)C(O)C1OCC(=O)N1CCCC1C(=O)N[C@@H](CCC(=O)NCCCCNc1c2ccccc2nc2cccc([N+](=O)[O-])c12)C(N)=O (some centres undefined) | 40.8 µM
* CCCCN(CCCC)Cc1cc(Nc2ccnc3cc(Cl)ccc23)ccc1O | > 100 µM
* O=C(O)CCc1nc2c(n1-c1ccccc1)C(=O)c1ccccc1C2=O | > 100 µM
* C1CSCCCSCCCSCCCSCCCSCCCSCCCSCCCSC1 | > 100 µM
* C=CCOC(=O)N1c2ccc(O[Si](C)(C)C(C)(C)C)cc2[C@@]23O[C@@]24[C@@H]1C#C/C=C\C#C[C@]3(O)C(OC)(OC)C[C@@H]4C | > 100 µM

Prompt: Supply recorded TGI for CC(=O)c1c(C(F)(F)F)n([O-])c2ccccc2[n+]1=O here.
Response: 2.43 µM

Prompt: Supply recorded TGI for O=c1oc2ccccc2c2c1Sc1ccccc1N2 here.
Response: > 100 µM

Prompt: Supply recorded TGI for C[C@H](c1ccccc1)N1C(=O)[C@@H](O)[C@H]1[C@H](CO)OCc1ccccc1 here.
Response: > 100 µM

Prompt: Supply recorded TGI for COc1ccc2c(c1)C(=O)CC1c3cnccc3C(=O)N21 (centres undefined) here.
Response: > 100 µM

###

# Test system: OVCAR-5 ovarian
# protocol-summary: NCI tumour cell line growth inhibition, 48 h
Catalogue of compounds with associated TGI
The reply should be a number in µM, with the unit left off.

Illustrative cases are given below, each with its answer.
* CC(=O)c1c(O)c(C)c(O)c(Cc2c(O)c3c(c(C(=O)/C=C/c4ccccc4)c2O)OC(C)(C)C=C3)c1O | 22.4
* N#Cc1c(-c2ccc(Cl)cc2)c2c(nn3c4ccc5ccccc5c4nnc23)[nH]c1=O | 23.4

Prompt: Supply recorded TGI for Cc1ccc2cnc(N)c(C#Cc3cc(C(=O)Nc4ccc(CN5CCN(C)CC5)c(C(F)(F)F)c4)cnc3C)c2c1 here.
Response: 1.49

###

Catalogue of compounds with associated TGI
# Test system: MDA-MB-231 breast
# protocol-summary: NCI tumour cell line growth inhibition, 48 h

Illustrative cases are given below, each with its answer.
* O=C1[C@H](O)[C@@H]2C(O)O[C@H]3[C@@H]2N1C[C@H]3[Si](c1ccccc1)(c1ccccc1)c1ccccc1 (stereo not given in full) | > 100 µM
* CCOC(=O)c1ccc(-n2[nH]nc(C(N)=O)c2=O)cc1 | > 100 µM
* Cn1c(=O)c2[nH]c(N/N=N/c3nncs3)nc2n(C)c1=O | > 100 µM
* COc1ccc(N2C(=O)C3c4[nH]c5ccc(OCc6ccccc6)cc5c4C4CCC(c5ccccc5)CC4C3C2=O)cc1 (stereo not given) | 27.3 µM

As a next step, examine the compound that follows.
Prompt: Tell me TGI of CO/N=C(\COc1ccc2c(c1)[nH]c1ccccc12)c1ccc(OC)cc1 when tested on MDA-MB-231 breast.
Response: > 100 µM

###

# Tested on: HCC-2998 colon
# protocol-summary: NCI tumour cell line growth inhibition, 48 h
Catalogue of molecules with associated TGI

Illustrative cases are given below, each with its answer.
• O=C(Nc1cccc(Cl)c1)Nn1cnnc1 = > 100 µM
• C/C=C/C(C#N)O[Si](C)(C)C (configuration not stated) = > 100 µM
• C/C(CC(O)(C(F)(F)F)C(F)(F)F)=N\NC(N)=O = > 10 µM
• CN(C)c1cc2ccccc2oc1=O = > 100 µM

Prompt: Supply recorded TGI for COC(=O)Cc1cc(O)c2c(c1O)C(=O)c1ccccc1C2=O here.
Response: > 100 µM

Prompt: Supply recorded TGI for O=C(Oc1cccnc1)c1cccnc1Nc1ccnc(C(F)(F)F)c1 here.
Response: 35.3 µM

###

# Test system: NCI-H522 lung
# protocol-summary: NCI tumour cell line growth inhibition, 48 h
measure-name: TGI

Illustrative cases are given below, each with its answer.
* CN(C)CCNc1ccc2c(=O)n(CCN(C)C)c(=O)n3c4ccc(O)cc4c(=O)c1c23 | 0.221 µM
* COc1ccc(N2C(=O)C3c4[nH]c5ccc(OCc6ccccc6)cc5c4C4CCC(c5ccccc5)CC4C3C2=O)cc1 (stereo not drawn) | > 44.6 µM

As a next step, examine the molecule that follows.
Prompt: Supply recorded TGI for COC(=O)C1=C(O)C(C(=O)OC)C2CC(=O)CC1C2(C)C (stereo not drawn) here.
Response: > 100 µM

###

# Test system: ACHN renal
# protocol-summary: NCI tumour cell line growth inhibition, 48 h
measure-name: TGI

* CSc1ncc2c(n1)C(C#N)C1Sc3ccccc3N1C2=O (centres undefined) | > 100 µM
* N#CCCN(CCC#N)c1ccc(/C=C2\N=C(c3ccccc3)N(c3ccc(F)cc3)C2=O)cc1 | > 100 µM
* O=C(COc1ccccc1Cl)N1N=C(c2ccc(Cl)cc2)CC1(O)c1ccccc1 (centres undefined) | > 100 µM
* O=C(Nc1ccccc1F)c1cc2ccc(O)cc2oc1=Nc1cccc(F)c1 | 29.5 µM

Prompt: Tell me TGI of COC(=O)C1(NC(=O)C(CC(=O)OCc2ccccc2)NC(=O)OCc2ccccc2)CCCCCC1 (centres undefined) when tested on ACHN renal.
Response: > 100 µM

Prompt: Tell me TGI of CC(=O)NC1C(OCc2ccccc2)OC(CO)C(O)C1OCC(=O)N1CCCC1C(=O)N[C@@H](CCC(=O)NCCCCNc1c2ccccc2nc2cccc([N+](=O)[O-])c12)C(N)=O (some centres undefined) when tested on ACHN renal.
Response: > 100 µM

Prompt: Tell me TGI of CCc1c2c(nc3ccc(OCc4ccc(B(O)O)cc4)cc13)-c1cc3c(c(=O)n1C2)COC(=O)[C@]3(O)CC when tested on ACHN renal.
Response: 0.589 µM

Prompt: Tell me TGI of c1ncn(C23C4C5C6C4C2C6C53)n1 (centres undefined) when tested on ACHN renal.
Response: > 100 µM

Prompt: Tell me TGI of CNC(=S)Nc1ccc(OC)c2ccccc12 when tested on ACHN renal.
Response: > 10 µM
